Provenance of the data: the supplement of paper PMC10307832

Property: relative viability; scope: individual molecules
System: NCI-H1650
experiment description: relative viability (nuclei count vs DMSO), 5 days (fraction); higher = more cells survive
run parameters: first compound 1.265 µM
measure name: relative viability

Cc1sc2c(c1C)C(c1ccc(Cl)cc1)=N[C@@H](CC(=O)OC(C)(C)C)c1nnc(C)n1-2 [JQ1] + Cc1nc(Nc2ncc(C(=O)Nc3c(C)cccc3Cl)s2)cc(N2CCN(CCO)CC2)n1 [Dasatinib] (partner 0.075 µM) :: 0.134
Cc1sc2c(c1C)C(c1ccc(Cl)cc1)=N[C@@H](CC(=O)OC(C)(C)C)c1nnc(C)n1-2 [JQ1] + COc1cccc2cc(-c3nc([C@H]4CC[C@H](C(=O)O)CC4)n4ncnc(N)c34)[nH]c12 [OSI-027] (partner 0.5 µM) :: 0.153
Cc1sc2c(c1C)C(c1ccc(Cl)cc1)=N[C@@H](CC(=O)OC(C)(C)C)c1nnc(C)n1-2 [JQ1] + C[C@@H](Oc1cc(-c2cnn(C3CCNCC3)c2)cnc1N)c1c(Cl)ccc(F)c1Cl [Crizotinib] (partner 1 µM) :: 0.126
Cc1sc2c(c1C)C(c1ccc(Cl)cc1)=N[C@@H](CC(=O)OC(C)(C)C)c1nnc(C)n1-2 [JQ1] + O=C(c1cc(Cc2n[nH]c(=O)c3ccccc23)ccc1F)N1CCN(C(=O)C2CC2)CC1 [Olaparib] (partner 8 µM) :: 0.21
